assay.protocol: Cytotoxicity against African green monkey Vero cells assessed as reduction in cell viability incubated for 72 hrs by MTT assay
Type: toxicity, cell-based
run.parameters: chlorocebus sabaeus
quantity: CC50 at 72 h (µg/mL)
Give your result in µg/mL as a bare value.

Memo: `COc1ccccc1-n1c(C)cc(/C=C2\S/C(=N/c3nccs3)NC2=O)c1C` , reported CC50 at 72 h: 40

Memo: `Cc1ccc(-n2c(C)cc(/C=C3\S/C(=N/c4nccs4)NC3=O)c2C)cc1C` , reported CC50 at 72 h: 40

---

Tested on: Staphylococcus aureus
assay.protocol: Antibacterial activity against methicillin-resistant Staphylococcus aureus NR 100 clinical isolate assessed as bacterial growth inhibition incubated for 16 to 18 hrs by CLSI based susceptibility testing method
Assay type: functional
run.parameters: time 16-18 hrs
Reported MIC values follow for various compounds
Give your result in µg/mL as a bare value.

Reference set (2 entries):
C[C@@H](O)[C@H]1C(=O)N2C(C(=O)O)=C(S[C@@H]3CN[C@H](C(=O)N(C)C)C3)[C@H](C)[C@H]12: 32
C[C@H]1COc2c(N3CCN(C)CC3)c(F)cc3c(=O)c(C(=O)O)cn1c23 [LEVOFLOXACIN ANHYDROUS]: 0.25

Memo: `COc1ccccc1-n1c(C)cc(/C=C2\S/C(=N/c3nccs3)NC2=O)c1C` , reported MIC: 1

Measured values drawn from ChEMBL document CHEMBL5634099 for this set.
